- tgt: T1, extracellular binding domain of human SIRPγ (plate-coated) (human, UniProt Q9P1W8 29-360)
- T1 construct: also called hSIRPγ
- protocol-details: competition ELISA, coated SIRPγ ECD, antibody 1 h then 10 µg/mL biotinylated CD47-Fc (blocked ligand), streptavidin-HRP
Listed here are binders together with their documented IC50 (read off the curve).

binder	IC50 (read off the curve)
Antibody 64 (antibody, V domains shown) VH: QVQLVQSGAEVKKPGASVKVSCKASGYTFTSYYMHWVRQAPGQGLEWMGRINPNSGGTKYAQKFQGRVTMTRDTSTSTVYMELSSLRSEDTAVYYCARLGSAYFDLWGRGTLVTVSS VL: DIQMTQSPSSLSASVGDRVTITCRASQSVDTWLAWYQQKPGKAPKLLIYEASTLESGVPSRFSGSGSGTDFTLTISSLQPEDFATYYCQQANSFPITFGQGTRLEIK	~0.2 µg/mL

Quick note, IC50 (read off the curve) for Antibody 83 (antibody, V domains shown) VH: QVQLVQSGAEVKKPGASVKVSCKASGYSFSDYYMHWVRQAPGQGLEWMGWMSPNSGNTGYAQKFQGRVTMTRDTSTSTVYMELSSLRSEDTAVYYCARQREEYGHYYYGMDVWGQGTMVTVSS VL: EIVMTQSPATLSVSPGERATLSCRASQSLGSTYLAWYQQKPGQAPRLLIYGASTRATGIPARFSGSGSGTEFTLTISSLQSEDFAVYYCQQYYSSPPTFGQGTKVEIK landed at ~0.2 µg/mL

Quick note, IC50 (read off the curve) for Antibody 90 (antibody, V domains shown) VH: QVQLVQSGAEVKKPGASVKVSCKASGYTFTSYYMHWVRQAPGQGLEWMGWMNPNSDNTGYAQKFQGRVTMTRDTSTSTVYMELSSLRSEDTAVYYCARVGVGYGYYYYGMDVWGQGTTVTVSS VL: DIQMTQSPSSLSASVGDRVTITCRAGQSIGDYLNWYQQKPGKAPKLLIYAASSLQSGVPSRFSGSGSGTDFTLTISSLQPEDFATYYCQQSYSTPWTFGQGTKVEIK landed at ~0.2 µg/mL

Quick note, IC50 (read off the curve) for Antibody 88 (antibody, V domains shown) VH: QVQLVQSGAEVKKPGASVKVSCKASGYTFTSHDINWVRQAPGQGLEWMGWMNANNGNAGYAQKFQGRVTMTRDTSTSTVYMELSSLRSEDTAVYYCAKDLSPSSSWSTYYYYYGMDVWGQGTMVTVSS VL: DIQMTQSPSSLSASVGDRVTITCRASQSISNLLAWYQQKPGKAPKLLIYAASSLQSGVPSRFSGSGSGTDFTLTISSLQPEDFATYYCQQSYSTPYTFGQGTKLEIK landed at ~0.4 µg/mL

Quick note, IC50 (read off the curve) for Antibody 97 (antibody, V domains shown) VH: QVQLVQSGAEVKKPGASVKVSCKASGHTFNNNYIHWVRQAPGQGLEWMGIINPSGGSTSYAQKFQGRVTMTRDTSTSTVYMELSSLRSEDTAVYYCARQIQDYGYYYYGMDVWGQGTTVTVSS VL: EIVMTQSPATLSVSPGERATLSCRASQSVSKYLAWYQQKPGQAPRLLIYAISARAAGIPARFSGSGSGTEFTLTISSLQSEDFAVYYCQQYYSSPPTFGQGTKVEIK landed at ~0.3 µg/mL
